Biological target: Multidrug resistance-associated protein 1 (Homo sapiens)
Sequence (P33527 whole entry): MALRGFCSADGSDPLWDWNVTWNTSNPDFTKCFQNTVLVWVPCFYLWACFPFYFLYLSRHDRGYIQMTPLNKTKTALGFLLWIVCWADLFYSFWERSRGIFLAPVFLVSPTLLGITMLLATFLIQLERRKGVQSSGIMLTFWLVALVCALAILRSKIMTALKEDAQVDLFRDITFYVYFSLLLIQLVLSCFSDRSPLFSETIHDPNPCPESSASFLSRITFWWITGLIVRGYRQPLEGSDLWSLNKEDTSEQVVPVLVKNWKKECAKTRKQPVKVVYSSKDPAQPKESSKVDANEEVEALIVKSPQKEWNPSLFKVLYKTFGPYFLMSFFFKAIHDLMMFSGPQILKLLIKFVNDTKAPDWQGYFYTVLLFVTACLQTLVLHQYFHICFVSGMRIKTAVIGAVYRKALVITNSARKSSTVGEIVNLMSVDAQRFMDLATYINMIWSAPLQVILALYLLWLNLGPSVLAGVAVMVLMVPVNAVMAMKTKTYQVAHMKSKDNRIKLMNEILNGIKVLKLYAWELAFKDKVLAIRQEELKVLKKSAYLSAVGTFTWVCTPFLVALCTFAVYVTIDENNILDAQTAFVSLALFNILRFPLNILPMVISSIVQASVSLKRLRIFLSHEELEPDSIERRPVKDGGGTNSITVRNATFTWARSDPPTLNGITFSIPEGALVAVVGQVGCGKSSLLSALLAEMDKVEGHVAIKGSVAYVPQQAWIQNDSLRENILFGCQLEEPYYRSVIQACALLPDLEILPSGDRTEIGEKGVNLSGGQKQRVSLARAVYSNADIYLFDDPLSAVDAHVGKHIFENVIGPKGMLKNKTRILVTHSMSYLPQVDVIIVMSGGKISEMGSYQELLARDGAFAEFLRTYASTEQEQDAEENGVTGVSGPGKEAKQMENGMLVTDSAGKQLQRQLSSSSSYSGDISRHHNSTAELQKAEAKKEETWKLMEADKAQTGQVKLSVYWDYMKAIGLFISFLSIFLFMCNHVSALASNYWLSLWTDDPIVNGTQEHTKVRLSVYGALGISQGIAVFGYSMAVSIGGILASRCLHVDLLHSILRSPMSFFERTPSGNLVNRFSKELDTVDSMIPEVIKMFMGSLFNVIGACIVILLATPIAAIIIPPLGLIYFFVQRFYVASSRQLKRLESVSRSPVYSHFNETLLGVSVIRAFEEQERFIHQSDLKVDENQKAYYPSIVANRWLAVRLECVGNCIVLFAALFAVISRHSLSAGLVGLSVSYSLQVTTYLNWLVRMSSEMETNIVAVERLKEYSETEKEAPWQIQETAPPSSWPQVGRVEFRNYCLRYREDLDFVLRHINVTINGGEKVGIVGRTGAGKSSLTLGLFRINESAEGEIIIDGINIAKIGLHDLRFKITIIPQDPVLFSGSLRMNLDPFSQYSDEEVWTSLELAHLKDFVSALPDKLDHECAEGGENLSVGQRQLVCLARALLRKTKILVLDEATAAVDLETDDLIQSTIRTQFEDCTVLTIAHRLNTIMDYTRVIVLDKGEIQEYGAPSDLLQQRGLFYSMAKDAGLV
Experiment: viability protection against doxorubicin, MRP-1 line – cell-based, doxorubicin EC50 shift, dose response (AID 844)
measure.name: EC50 (µM)
API: value field is a number in µM; no unit string.

{"columns": ["compound", "EC50, µM"],
 "data": [
  ["COc1cccc(C=NNC(=O)c2[nH][nH]c(=O)c2C)c1O", 6.47]
]}

For this compound ( COC(=O)C(C=Nc1ccc(O)cc1)[N+](=O)[O-] (stereo not given) ), measured EC50 is 1.12

For this compound ( CCOc1ccc2c(c1)C(N=O)C(=O)N2C (stereo not given) ), measured EC50 is 3.14

For this compound ( Cc1ccc(C)c(C(=O)C2C(=O)C(=O)N(CCCn3ccnc3)C2c2ccncc2)c1 (stereo not given) ), measured EC50 is 6.31

For this compound ( `COc1ccc(Cc2nnc(N=NCc3ccc(O)cc3O)[nH]c2=O)cc1OC` ), measured EC50 is 0.836

For this compound ( `Oc1cc(N2CCCN(c3cc(O)n(-c4ccc(F)cc4)c3O)CC2)c(O)n1-c1ccc(F)cc1` ), measured EC50 is 6.34

For this compound ( COc1cc(C2NC(=O)N=C(C)C2C(=O)OCc2ccc(C)cc2)cc(OC)c1O (stereo not given) ), measured EC50 is 3.65

For this compound ( `O=C1/C(=C/c2nc3ccccc3[nH]2)SC(=S)N1c1ccc(F)cc1` ), measured EC50 is 3.39

For this compound ( `COc1ccc(CN=Nc2nc(-c3ccc(Cl)cc3)cc(C(F)(F)F)n2)cc1OC` ), measured EC50 is 1.9

For this compound ( `CCN(C1CCCCC1)S(=O)(=O)c1cc(C)ccc1OC` ), measured EC50 is 3.33
